Where these numbers come from: patent US20220235132A1

pKd values, listed per item
Biological target: T1, biotinylated cynomolgus monkey PD-1 extracellular domain monomer (cynomolgus monkey, UniProt B0LAJ3 25-170, Biotinylated; neither the site nor the method is stated, and the letters do not carry it.)
T1 construct: Captured on a streptavidin sensor chip for SPR; also called Cynomolgus PD-1 (SPR)
T1 sequence (B0LAJ3 entry or part of it limits assumed): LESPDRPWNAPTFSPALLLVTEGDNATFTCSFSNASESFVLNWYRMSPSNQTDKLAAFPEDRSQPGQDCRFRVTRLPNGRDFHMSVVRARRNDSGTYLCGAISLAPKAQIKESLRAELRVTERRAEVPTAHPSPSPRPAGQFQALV
Assay: SPR (Biacore T200), biotinylated PD-1 ECD monomer captured on SA chip
Scale: pKd equals -log10([C]), with [C] in mol/L.

1. APE12538 (437M5-112 anti-PD-1 antibody, CHO-S sorted stable pool) (antibody, human IgG1, kappa, V domains shown, also called APE12538.01) VH: QVQLVQSGAEVKKPGASVKVSCKASGYTFTSYSMHWVRQAPGQGLEWMGYINPSSGFTNYIQKFRDRVTMTADKSSSTAYMELSRLRSDDTAVYYCARDYYGRYYYVMDYWGQGTTVTVSS VL: DIQMTQSPSSLSASVGDRVTITCTASSSVSSSFLHWYQQKPGKAPKLLIYSTSDLASGVPSRFSGSGSGTDFTLTISSLQPEDFATYYCHQYHRSPLTFGGGTKVEIKR	9.66
2. APE12043 (437M5-112 anti-PD-1 antibody, ExpiCHO-S transient) (antibody, V domains shown, detected with anti-human kappa; Only variable regions are tied to APE12043; the suffixes .02 to .05 are lots; also called APE12043.02; APE12043.03) VH: QVQLVQSGAEVKKPGASVKVSCKASGYTFTSYSMHWVRQAPGQGLEWMGYINPSSGFTNYIQKFRDRVTMTADKSSSTAYMELSRLRSDDTAVYYCARDYYGRYYYVMDYWGQGTTVTVSS VL: DIQMTQSPSSLSASVGDRVTITCTASSSVSSSFLHWYQQKPGKAPKLLIYSTSDLASGVPSRFSGSGSGTDFTLTISSLQPEDFATYYCHQYHRSPLTFGGGTKVEIKR	10.05
3. APE12095 (3.7C6 anti-PD-1 antibody, ExpiCHO-S transient) (antibody, V domains shown, detected with anti-human kappa; Only variable regions are tied to APE12095; suffixes are lots; also called APE12095.03; APE12095.04) VH: QVQLVQSGSELKKPGASVKVSCKASNYTFTDYSMHWVRQAPGQGLEWMGWINIETYYPTYADQFKGRFAFSLDTSVSTAYLQISSLKAEDTAVYYCARDYYGRFYYAMDYWGQGTTVTVSS VL: EIVLTQSPATLSLSPGERATLSCTASSSVSSSYFHWYQQKPGQAPRLLIYSTSNLASGIPARFSGSGSGTDFTLTISRLEPEDFAVYYCHQYHRSPLTFGGGTKVEIKR	9.61

Field: next binder
pKd reported for this binder APE12537 (3.7C6 anti-PD-1 antibody, CHO-S sorted stable pool) (antibody, human IgG1, kappa, V domains shown, also called APE12537.01) VH: QVQLVQSGSELKKPGASVKVSCKASNYTFTDYSMHWVRQAPGQGLEWMGWINIETYYPTYADQFKGRFAFSLDTSVSTAYLQISSLKAEDTAVYYCARDYYGRFYYAMDYWGQGTTVTVSS VL: EIVLTQSPATLSLSPGERATLSCTASSSVSSSYFHWYQQKPGQAPRLLIYSTSNLASGIPARFSGSGSGTDFTLTISRLEPEDFAVYYCHQYHRSPLTFGGGTKVEIKR : 9.35
